Target: NMDA receptor (Rattus norvegicus, UniProt P35439)
Construct: After the rats were decapitated, the prefrontal cortex and hippocampus were rapidly separated on ice; from tissue; host or cells: SD male rat prefrontal cortex and hippocampus, crude synaptosomes
Experiment: NMDA receptor agonistic properties in rat crude synaptosomal proteins (maximum [3H]-MK-801 binding vs 1 mM glycine)
Type: biochemical
Details: maximum [3H]-MK-801 binding % relative to 1 mM glycine; 50 μM glutamic acid
Give measured Maximum agonistic efficacy (%) for each item. Keep answers brief.
Write down the numeric answer in % and omit the unit.

Prompt line: Sample C[C@@H](O)[C@H](N)C(=O)N1CCCC2(C1)N[C@H](C(=O)N[C@H](C(N)=O)[C@@H](C)O)CS2.Cl (some centres unmarked) [A-401] — what was its Maximum agonistic efficacy (%)?
Response line: 75

Prompt line: Sample CC(C)C(=O)N1CCSC12CN(C(=O)[C@@H](N)[C@@H](C)O)C2.Cl [A-098] — what was its Maximum agonistic efficacy (%)?
Response line: 28

Prompt line: Sample CC(=O)N1CC2(C1)N[C@H](C(=O)N[C@@H](CO)C(N)=O)CS2 [A-333] — what was its Maximum agonistic efficacy (%)?
Response line: 19

Prompt line: Sample Cl.N[C@@H](CO)C(=O)N1CC2(C1)N[C@H](C(=O)N1CCNCC1)CS2 [A-470] — what was its Maximum agonistic efficacy (%)?
Response line: 33

Prompt line: Sample CC(C)C(=O)N1CCC2(CC1)N[C@H](C(N)=O)CS2 [A-272] — what was its Maximum agonistic efficacy (%)?
Response line: 19

----------
Molecular target: NMDA receptor (Rattus norvegicus)
Construct: After the rats were decapitated, the prefrontal cortex and hippocampus were rapidly separated on ice; from tissue; host or cells: SD male rat prefrontal cortex and hippocampus, crude synaptosomes
Assay: Inhibition of [3H]-MK-801 binding to rat crude synaptosomes (receptor ligand binding assay)
Settings: affinity on NMDA; [3H]-MK-801 10 nM, rat prefrontal cortex and hippocampus crude synaptosomes; read-out: IC50
Field 'label' (enum: YES / NO). Set to YES when IC50 is strictly under 0.5 nM; else NO.

Prompt line: In plain terms, does C[C@@H](O)[C@H](N)C(=O)N1CCCC2(C1)NCCS2.Cl (stereo partly drawn) [A-048] come in under 0.5 nM for IC50?
Response line: NO

Prompt line: In plain terms, does CN1CCN(C(=O)[C@@H]2CSC3(CCCN(C(=O)[C@@H](N)CO)C3)N2)CC1.Cl (stereo partly drawn) [A-463] come in under 0.5 nM for IC50?
Response line: NO

Prompt line: In plain terms, does CC(C)C(=O)N1CCC2(CC1)N[C@H](C(N)=O)CS2 [A-272] come in under 0.5 nM for IC50?
Response line: NO

Prompt line: In plain terms, does C[C@@H](O)[C@H](N)C(=O)N1CC2(C1)N[C@H](C(=O)N1CCOCC1)CS2.Cl [A-409] come in under 0.5 nM for IC50?
Response line: NO

Prompt line: In plain terms, does CC(=O)N1CCSC12CCN(C(=O)OC(C)(C)C)CC2 [A-078] come in under 0.5 nM for IC50?
Response line: NO

Prompt line: In plain terms, does C[C@@H](O)[C@H](N)C(=O)N1CCC2(CC1)N[C@H](C(=O)N1CCCCC1)CS2.Cl [A-437] come in under 0.5 nM for IC50?
Response line: YES

Prompt line: In plain terms, does C[C@@H](O)[C@H](NC(=O)[C@@H]1CSC2(CCNCC2)N1)C(N)=O.Cl [A-390] come in under 0.5 nM for IC50?
Response line: YES

Prompt line: In plain terms, does CC(=O)N1[C@H](C(N)=O)CSC12CN(C(=O)[C@@H](N)C(C)O)C2.Cl (stereo partly drawn) [A-335] come in under 0.5 nM for IC50?
Response line: YES

Prompt line: In plain terms, does CC(C)[C@H](N)C(=O)N1CC2(C1)NCCS2.Cl [A-008] come in under 0.5 nM for IC50?
Response line: NO

----------
Biological target: NMDA receptor (Rattus norvegicus, UniProt P35439)
Construct: After the rats were decapitated, the prefrontal cortex and hippocampus were rapidly separated on ice; from tissue; host or cells: SD male rat prefrontal cortex and hippocampus, crude synaptosomes
Assay: NMDA receptor agonistic properties in rat crude synaptosomal proteins (maximum [3H]-MK-801 binding vs 1 mM glycine)
Format: biochemical
Conditions: maximum [3H]-MK-801 binding % relative to 1 mM glycine; 50 μM glutamic acid
VALUE TYPE: Maximum agonistic efficacy (%)
Write down the numeric answer in % and omit the unit.

Prompt line: Query Maximum agonistic efficacy (%) on NMDA receptor (Rattus norvegicus, UniProt P35439) for Cl.N[C@@H](CO)C(=O)N1CCC2(CC1)N[C@H](C(=O)N1CCNCC1)CS2 [A-476]
Response line: 56

Prompt line: Query Maximum agonistic efficacy (%) on NMDA receptor (Rattus norvegicus, UniProt P35439) for C[C@@H](O)[C@H](N)C(=O)N1CCCC2(C1)NCCS2.Cl (stereo partly shown) [A-048]
Response line: 38

Prompt line: Query Maximum agonistic efficacy (%) on NMDA receptor (Rattus norvegicus, UniProt P35439) for CC(C)(C)OC(=O)N1CCC2(C1)NCCS2 (stereo not shown) [A-016]
Response line: 56

Prompt line: Query Maximum agonistic efficacy (%) on NMDA receptor (Rattus norvegicus, UniProt P35439) for CC(=O)N1[C@H](C(N)=O)CSC12CN(C(=O)[C@@H](N)C(C)O)C2.Cl (stereo partly shown) [A-335]
Response line: 42

Prompt line: Query Maximum agonistic efficacy (%) on NMDA receptor (Rattus norvegicus, UniProt P35439) for C[C@@H](O)[C@H](N)C(=O)N1CCC2(CC1)N[C@H](C(=O)N1CCSCC1)CS2.Cl [A-449]
Response line: 38

Prompt line: Query Maximum agonistic efficacy (%) on NMDA receptor (Rattus norvegicus, UniProt P35439) for Cl.N[C@@H](CO)C(=O)N1CC2(C1)NCCS2 [A-007]
Response line: 56

Prompt line: Query Maximum agonistic efficacy (%) on NMDA receptor (Rattus norvegicus, UniProt P35439) for C[C@@H](O)[C@H](N)C(=O)N1CC2(C1)SCCN2C(=O)C(C)(C)C.Cl [A-130]
Response line: 43

Prompt line: Query Maximum agonistic efficacy (%) on NMDA receptor (Rattus norvegicus, UniProt P35439) for NC(=O)C(CO)NC(=O)C1CSC2(CN(C(=O)C(N)CO)C2)N1 (stereo not shown) [A-334]
Response line: 34

Prompt line: Query Maximum agonistic efficacy (%) on NMDA receptor (Rattus norvegicus, UniProt P35439) for C[C@H](NC(=O)[C@@H]1CSC2(CN(C(=O)[C@@H](N)[C@@H](C)O)C2)N1)C(N)=O.Cl [A-378]
Response line: 49

Prompt line: Query Maximum agonistic efficacy (%) on NMDA receptor (Rattus norvegicus, UniProt P35439) for C[C@@H](O)[C@H](N)C(=O)N1CCC2(C1)N[C@H](C(N)=O)CS2.Cl (stereo partly shown) [A-266]
Response line: 45

Prompt line: Query Maximum agonistic efficacy (%) on NMDA receptor (Rattus norvegicus, UniProt P35439) for C[C@@H](O)[C@H](NC(=O)[C@@H]1CSC2(CCNCC2)N1)C(N)=O.Cl [A-390]
Response line: 55

Prompt line: Query Maximum agonistic efficacy (%) on NMDA receptor (Rattus norvegicus, UniProt P35439) for CC(C)[C@H](N)C(=O)N1CCSC12CN(C(=O)[C@@H](N)[C@@H](C)O)C2.Cl [A-331]
Response line: 31

Prompt line: Query Maximum agonistic efficacy (%) on NMDA receptor (Rattus norvegicus, UniProt P35439) for Cl.N#C[C@@H]1CSC2(CN(C(=O)[C@@H](N)CO)C2)N1 [A-303]
Response line: 35

----------
Assay: In-vivo metabolism (pharmacokinetic) study in rats, oral / tail intravenous
Settings: rat; Intravenous injection, 1 mg/kg, male SD rats, plasma
Give measured Cmax for each item. Keep answers brief.
Write down the numeric answer in ng/mL and omit the unit.

Prompt line: Sample `CC(=O)N1CCSC12CN(C(=O)[C@@H](N)[C@@H](C)O)C2.Cl` — what was its Cmax?
Response line: 1690

Prompt line: Sample `C[C@@H](O)[C@H](N)C(=O)N1CCC2(CC1)N[C@H](C(N)=O)CS2.Cl` — what was its Cmax?
Response line: 2480

Prompt line: Sample `C[C@@H](O)[C@H](N)C(=O)N1CC2(C1)N[C@H](C(N)=O)CS2.Cl` — what was its Cmax?
Response line: 3630

Prompt line: Sample `CC(=O)N1CCSC12CCN(C(=O)[C@@H](N)[C@@H](C)O)CC2.Cl` — what was its Cmax?
Response line: 18300

Prompt line: Sample `CC(C)[C@H](N)C(=O)N1CC2(C1)N[C@H](C(N)=O)CS2.Cl` — what was its Cmax?
Response line: 2240

Prompt line: Sample `CC(C)C(=O)N1CCSC12CN(C(=O)[C@@H](N)[C@@H](C)O)C2.Cl` — what was its Cmax?
Response line: 1090

Prompt line: Sample `C[C@@H](O)[C@H](N)C(=O)N1CC2(C1)NCCS2.Cl` — what was its Cmax?
Response line: 11600
